I'd appreciate it if you could supply Ratio hCT/hAmylin binding values for the items below.
Target: T1, human calcitonin receptor (human, UniProt P30988 25-474)
T1 construct: whole, on cells; Used as membranes prepared from the transfected cells (Assay VII); also called hCTR; hCT
T1 sequence (looked up): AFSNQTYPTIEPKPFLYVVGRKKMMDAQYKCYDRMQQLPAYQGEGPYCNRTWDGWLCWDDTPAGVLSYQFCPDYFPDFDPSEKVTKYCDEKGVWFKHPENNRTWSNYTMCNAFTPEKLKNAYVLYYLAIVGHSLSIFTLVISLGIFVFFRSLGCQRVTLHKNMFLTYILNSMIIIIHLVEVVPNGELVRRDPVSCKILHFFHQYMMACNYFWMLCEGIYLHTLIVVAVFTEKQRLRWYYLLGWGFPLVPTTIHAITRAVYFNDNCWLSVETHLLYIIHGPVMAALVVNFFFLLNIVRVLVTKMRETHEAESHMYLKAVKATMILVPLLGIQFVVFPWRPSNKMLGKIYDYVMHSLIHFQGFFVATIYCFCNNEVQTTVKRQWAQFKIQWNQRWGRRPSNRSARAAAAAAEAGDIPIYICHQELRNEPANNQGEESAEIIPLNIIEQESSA
Assay: ratio of IC50 on human calcitonin receptor (Assay VII) to IC50 on human amylin receptor (Assay V)
Numbered stars: 1 amine (or outer) side, 2 acyl side, 3 side chain; on linkers, the order of the positions; unused ones are H or OH. Bridge positions count the residues as written; N and C are the ends. Side chains are listed from the residue outwards. Ends that are not written are not given here. * marks the point of attachment. C20 diacid = O=C(O)CCCCCCCCCCCCCCCCCCC(=O)*; γGlu = O=C(O)[C@H](CCC(=O)[*:2])N[*:1]
Just the number, please.

Which Ratio hCT/hAmylin binding is listed for K([γGlu-γGlu-C20 diacid])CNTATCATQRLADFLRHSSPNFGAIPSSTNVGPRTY-NH2 (disulfide 2-7, not restated for each compound; also called compound 130) ?
280

Which Ratio hCT/hAmylin binding is listed for K([γGlu-γGlu-C20 diacid])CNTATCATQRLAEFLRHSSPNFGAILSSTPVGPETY-NH2 (disulfide 2-7 (inferred), not restated for each compound) ?
22.6

Which Ratio hCT/hAmylin binding is listed for K([γGlu-γGlu-C20 diacid])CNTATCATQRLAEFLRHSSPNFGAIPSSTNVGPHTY-NH2 (disulfide 2-7 (inferred), not restated for each compound) ?
27.3

Which Ratio hCT/hAmylin binding is listed for K([γGlu-C20 diacid])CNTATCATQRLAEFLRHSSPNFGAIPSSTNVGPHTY-NH2 (disulfide 2-7, not restated for each compound) ?
21.2

Which Ratio hCT/hAmylin binding is listed for K([γGlu-γGlu-C20 diacid])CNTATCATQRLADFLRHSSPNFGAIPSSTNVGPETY-NH2 (disulfide 2-7, not restated for each compound) ?
49.8

Which Ratio hCT/hAmylin binding is listed for {C20 diacid-γGlu}-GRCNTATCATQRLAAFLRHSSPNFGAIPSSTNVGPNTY-NH2 (disulfide 3-8, not restated for each compound) ?
26.5
